Entries and their Ki
target: 5-hydroxytryptamine receptor 6 (Homo sapiens, UniProt P50406); test: Binding affinity to human 5HT6 receptor in HEK293 cells by radioligand binding assay
Sequence (P50406 whole entry): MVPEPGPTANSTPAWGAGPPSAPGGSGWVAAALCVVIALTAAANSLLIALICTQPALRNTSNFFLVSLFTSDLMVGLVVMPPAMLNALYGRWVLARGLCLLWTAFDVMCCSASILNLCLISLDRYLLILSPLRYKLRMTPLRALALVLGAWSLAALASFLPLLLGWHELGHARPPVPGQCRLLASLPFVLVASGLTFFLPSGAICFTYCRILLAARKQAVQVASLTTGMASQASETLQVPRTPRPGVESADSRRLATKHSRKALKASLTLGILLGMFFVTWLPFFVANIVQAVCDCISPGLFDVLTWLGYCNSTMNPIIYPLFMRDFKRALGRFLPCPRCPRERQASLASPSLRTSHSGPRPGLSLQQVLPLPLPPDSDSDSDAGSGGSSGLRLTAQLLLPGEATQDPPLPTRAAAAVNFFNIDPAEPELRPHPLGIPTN
Report as a plain number; the unit nM is understood.

{"Sample Smiles": "O=S(=O)(c1ccccc1)c1cccc(N2CCNCC2)c1", "Ki, nM": 1.2}
{"Sample Smiles": "NCc1cccc(NS(=O)(=O)c2ccccc2)c1", "Ki, nM": 290}
{"Sample Smiles": "O=S(=O)(c1ccccc1)c1ccc(N2CCNCC2)cc1", "Ki, nM": 6.9}

Turning now to a further compound:
Challenge: Param item = "NCCc1ccc(S(=O)(=O)c2ccccc2)cc1" ; retrieve measured Ki.
Response given: 37

====

target: 5-hydroxytryptamine receptor 6 (Homo sapiens); experiment: Binding affinity to human 5HT6 receptor in HEK293 cells by radioligand binding assay
Experimental Endpoint: Ki
Answer with the number, then the unit.

{"Sample Smiles": "Nc1cccc(NS(=O)(=O)c2ccccc2)c1", "Ki": "2840 nM"}
{"Sample Smiles": "CN(C)CCc1ccn(S(=O)(=O)c2ccccc2)c1", "Ki": "15 nM"}
{"Sample Smiles": "NCCc1cccc(S(=O)(=O)Nc2ccccc2)c1", "Ki": "70 nM"}
{"Sample Smiles": "COc1ccc(NS(=O)(=O)c2ccccc2)cc1CCN", "Ki": "17 nM"}
{"Sample Smiles": "O=S(=O)(Nc1ccc(N2CCNCC2)cc1)c1ccccc1", "Ki": "85 nM"}
{"Sample Smiles": "NCCCc1cccc(NS(=O)(=O)c2ccccc2)c1", "Ki": "230 nM"}
{"Sample Smiles": "NCCc1ccc(NS(=O)(=O)c2ccccc2)cc1", "Ki": "38 nM"}
{"Sample Smiles": "O=S(=O)(c1ccccc1)c1ccccc1N1CCNCC1", "Ki": "4000 nM"}
{"Sample Smiles": "CNCCc1cccc(NS(=O)(=O)c2ccccc2)c1", "Ki": "38 nM"}
{"Sample Smiles": "NCCc1cccc(NS(=O)(=O)c2ccccc2)c1", "Ki": "21 nM"}

Challenge: Param item = "O=S(=O)(Nc1cccc(N2CCNCC2)c1)c1ccccc1" ; retrieve measured Ki.
Response given: 62 nM

Challenge: Param item = "NCCc1cccc(Sc2ccccc2)c1" ; retrieve measured Ki.
Response given: 115 nM

Challenge: Param item = "CN(C)CCc1cccc(NS(=O)(=O)c2ccccc2)c1" ; retrieve measured Ki.
Response given: 52 nM

Challenge: Param item = "NCCc1cccc(S(=O)(=O)c2ccccc2)c1" ; retrieve measured Ki.
Response given: 50 nM
